TEST_SYSTEM: UniProtKB P24941
PROCEDURE_DETAILS: Enzyme Assay
Catalogue of IC50 values

| COMPOUND | IC50 |
| --- | --- |
| CC(C)c1nn(-c2c(Cl)cc(Cl)cc2Cl)c2nc(Cc3ccc(NS(=O)(=O)CCCN4CCCCC4)cc3)[nH]c(=O)c12 | < 100 nM |
| CCN1CCN(S(=O)(=O)c2cc(Cl)c(-n3nc(C(C)C)c4c(=O)[nH]c(Cc5ccc(OCCN6CCOCC6)cc5)nc43)c(Cl)c2)CC1 | < 1000 nM |
| CC(C)c1nn(-c2c(Cl)cc(Cl)cc2Cl)c2nc(Cc3ccc(NS(=O)(=O)CCCN4CCOCC4)cc3)[nH]c(=O)c12 | < 100 nM |
| O=C(Nc1cccc2c1C(=O)c1c-2n[nH]c1-c1ccc(OCC(=O)N2CCCC2)cc1)NN1CCOCC1 | < 100 nM |
| CC(C)N1CCN(C(=O)COc2ccc(-c3[nH]nc4c3C(=O)c3c(NC(=O)NN5CCOCC5)cccc3-4)cc2)CC1 | < 100 nM |
| Cc1cc(OCCN2CCCC2)ccc1-c1[nH]nc2c1C(=O)c1c(NC(=O)NN3CCN(C)CC3)cccc1-2 | < 100 nM |

We now examine a further compound.
Give the value of IC50 reported for the following: CC(C)N1CCN(Cc2cc(-c3[nH]nc4c3C(=O)c3c(NC(=O)NN5CCOCC5)cccc3-4)ccc2O)CC1
< 100 nM

====

TEST_SYSTEM: CDK2 (UniProt P24941)
PROCEDURE_DETAILS: Enzyme Assay
Catalogue of IC50 values

Completed entries (count: 2):
| ENTRY_SMILES | VALUE_MEASURED |
| --- | --- |
| CC(C)N1CCN(S(=O)(=O)c2ccc(-c3[nH]nc4c3C(=O)c3c(NC(=O)NN5CCOCC5)cccc3-4)cc2)CC1 | < 0.01 µM |
| Cc1cc(OCCN2CCOCC2)ccc1-c1[nH]nc2c1C(=O)c1c(NC(=O)NN3CCN(C)CC3)cccc1-2 | < 0.1 µM |

We now examine a further compound.
Give the value of IC50 reported for the following: O=C(Nc1cccc2c1C(=O)c1c(-c3ccc(OCCN4CCOCC4)c(F)c3)n[nH]c1-2)NN1CCOCC1
< 0.1 µM

====

TEST_SYSTEM: CDK2 (UniProt P24941)
PROCEDURE_DETAILS: Enzyme Assay
Catalogue of IC50 values

| ENTRY_SMILES | IC50 |
| --- | --- |
| CC(C)c1nn(-c2c(Cl)cccc2Cl)c2nc(Cc3ccc(O)c(CN4CCN(C(C)C)CC4)c3)[nH]c(=O)c12 | < 100 nM |

Give the value of IC50 reported for the following: Cc1cc(-c2[nH]nc3c2C(=O)c2c(NC(=O)NN4CCN(C)CC4)cccc2-3)ccc1OCCN1CCN(C(C)C)CC1
< 100 nM

====

TEST_SYSTEM: CDK2 (UniProt P24941)
PROCEDURE_DETAILS: Enzyme Assay
pIC50: −log10 of the molar value.
Catalogue of pIC50 values

Completed entries (count: 4):
| ENTRY_SMILES | pIC50 |
| --- | --- |
| CC(C)c1nn(-c2c(Cl)cc(Cl)cc2Cl)c2nc(Cc3ccc(CN4CCCC4)n3C)[nH]c(=O)c12 | > 7.00 |
| CN1CCN(NC(=O)Nc2cccc3c2C(=O)c2c-3n[nH]c2-c2ccc(OCCN3CCCC3)cc2)CC1 | > 7.00 |
| O=C(Nc1cccc2c1C(=O)c1c-2n[nH]c1-c1ccc(OCCN2CCCC2)cc1)NN1CCOCC1 | > 7.00 |
| O=C(Nc1cccc2c1C(=O)c1c-2n[nH]c1-c1ccc(S(=O)(=O)N2CCNCC2)cc1)NN1CCOCC1 | > 7.00 |

Give the value of pIC50 reported for the following: CC(C)N1CCN(CCCOc2ccc(-c3[nH]nc4c3C(=O)c3c(NC(=O)NN5CCOCC5)cccc3-4)cc2)CC1
> 8.00

Give the value of pIC50 reported for the following: Cc1cc(OCCN2CCCN(C)CC2)ccc1-c1[nH]nc2c1C(=O)c1c(NC(=O)NN3CCN(C)CC3)cccc1-2
> 7.00

Give the value of pIC50 reported for the following: CC(C)c1nn(-c2c(Cl)cc(Cl)cc2Cl)c2nc(Cc3ccc(OCCN4CCN(C(C)C)CC4)cc3)[nH]c(=O)c12
> 8.00

Give the value of pIC50 reported for the following: COCCOc1ccc(Cc2nc3c(c(C(C)C)nn3-c3c(Cl)cccc3Cl)c(=O)[nH]2)cc1
> 7.00

Give the value of pIC50 reported for the following: Cc1cc(-c2[nH]nc3c2C(=O)c2c(NC(=O)NN4CCOCC4)cccc2-3)ccc1OCCN1CCCC1
> 7.00

Give the value of pIC50 reported for the following: COCCN1CCN(Cc2ccc(-c3[nH]nc4c3C(=O)c3c(NC(=O)NN5CCOCC5)cccc3-4)cc2)CC1
> 8.00

Give the value of pIC50 reported for the following: CN1CCN(NC(=O)Nc2cccc3c2C(=O)c2c-3n[nH]c2-c2ccc(OCCN3CC[C@H](O)C3)cc2)CC1
> 7.00

Data origin, for the record: the Kinase Knowledgebase extract (Sharma et al. 2016)
